Consider the following substances and their measured T-cell proliferation, average cpm readings.
# Tested on: Aβ16-30-specific T cells
# Assay protocol: Proliferation of Aβ16-30-specific T cells with alanine/glycine-substituted peptides
# Type: cell-based, human
# Condition: Peptide 0.1 μg/ml, 72 hr
# Text: Because the T-cell epitopes were most frequently localized to Aβ16-30, we further mapped this epitope for each of its constituent amino acids by using alanine-substituted peptides in the T-cell proliferation assay (the naturally occurring alanines at positions 21 and 30 were changed to glycines). […] Substitution of lysine-16, alanine-21, serine-26 or aspargine-27 increased T-cell proliferation by more than 2-fold (Table 4). […]
Write the numeric value and follow it with the unit.

What value of measured T-cell proliferation, average cpm is listed for Asn 27 Ala: Aβ16-30 peptide with asparagine-27 substituted by alanine (KLVFFAEDVGSAKGA; Amyloid-beta protein 42; UniProt P05067 687-701, looked up, variant N27A) ?
23636 cpm

Can you share its T-cell proliferation, average cpm? I mean this substance: Asp 23 Ala: Aβ16-30 peptide with aspartic acid-23 substituted by alanine (KLVFFAEAVGSNKGA; Amyloid-beta protein 42; UniProt P05067 687-701, looked up, variant D23A)
1145 cpm

Form field: reported T-cell proliferation, average cpm of Aβ16-30: nested Aβ peptide, residues 16-30 (KLVFFAEDVGSNKGA; Amyloid-beta protein 42; UniProt P05067 687-701, looked up, fragment)
1648 cpm

Which T-cell proliferation, average cpm is reported for this substance? Gly 29 Ala: Aβ16-30 peptide with glycine-29 substituted by alanine (KLVFFAEDVGSNKAA; Amyloid-beta protein 42; UniProt P05067 687-701, looked up, variant G29A)
622 cpm

###

# System: Aβ16-30-specific T cells
# Assay protocol: Proliferation of Aβ16-30-specific T cells with alanine/glycine-substituted peptides
# Assay type: cell-based, human
# Condition: Peptide 0.1 μg/ml, 72 hr
Let's look at some substances and their measured T-cell proliferation, average cpm.

Please review the following examples before continuing.
{"columns": ["Substance", "T-cell proliferation, average cpm"],
 "data": [
  ["Phe 20 Ala: Aβ16-30 peptide with phenylalanine-20 substituted by alanine (KLVFAAEDVGSNKGA; Amyloid-beta protein 42; UniProt P05067 687-701, looked up, variant F20A)", "1188 cpm"],
  ["Val 24 Ala: Aβ16-30 peptide with valine-24 substituted by alanine (KLVFFAEDAGSNKGA; Amyloid-beta protein 42; UniProt P05067 687-701, looked up, variant V24A)", "944 cpm"],
  ["Ala 30 Gly: Aβ16-30 peptide with alanine 30 changed to glycine (KLVFFAEDVGSNKGG; Amyloid-beta protein 42; UniProt P05067 687-701, looked up, variant A30G)", "2123 cpm"]
]}

Next:
Requested read-out: T-cell proliferation, average cpm. Entry: Val 18 Ala: Aβ16-30 peptide with Val 18 substituted by alanine (KLAFFAEDVGSNKGA; Amyloid-beta protein 42; UniProt P05067 687-701, looked up, variant V18A)
7216 cpm

###

# Tested on: Aβ16-30-specific T cells
# Assay protocol: Proliferation of Aβ16-30-specific T cells with alanine/glycine-substituted peptides
# Format: cell-based, human
# Condition: Peptide 0.1 μg/ml, 72 hr
Below, each entry is listed alongside its reported T-cell proliferation, average cpm.
Please don't drop the unit; write it after the number.

{"columns": ["Substance", "Property", "Readout value"],
 "data": [
  ["Glu 22 Ala: Aβ16-30 peptide with glutamic acid-22 substituted by alanine (KLVFFAADVGSNKGA; Amyloid-beta protein 42; UniProt P05067 687-701, looked up, variant E22A)", "T-cell proliferation, average cpm", "1145 cpm"],
  ["Ser 26 Ala: Aβ16-30 peptide with serine-26 substituted by alanine (KLVFFAEDVGANKGA; Amyloid-beta protein 42; UniProt P05067 687-701, looked up, variant S26A)", "T-cell proliferation, average cpm", "18808 cpm"],
  ["Phe 19 Ala: Aβ16-30 peptide with phenylalanine-19 substituted by alanine (KLVAFAEDVGSNKGA; Amyloid-beta protein 42; UniProt P05067 687-701, looked up, variant F19A)", "T-cell proliferation, average cpm", "986 cpm"]
]}

// switching to the query substance
Suppose we examine the substance Lys 28 Ala: Aβ16-30 peptide with Lys 28 substituted by alanine (KLVFFAEDVGSNAGA; Amyloid-beta protein 42; UniProt P05067 687-701, looked up, variant K28A) ; what T-cell proliferation, average cpm value has been reported?
5050 cpm

###

# System: Aβ16-30-specific T cells
# Assay protocol: Proliferation of Aβ16-30-specific T cells with alanine/glycine-substituted peptides
# Assay type: cell-based, human
# Condition: Peptide 0.1 μg/ml, 72 hr
Reported values of T-cell proliferation, average cpm for individual entries

{"columns": ["Substance", "T-cell proliferation, average cpm"],
 "data": [
  ["Leu 17 Ala: Aβ16-30 peptide with Leu 17 substituted by alanine (KAVFFAEDVGSNKGA; Amyloid-beta protein 42; UniProt P05067 687-701, looked up, variant L17A)", "2242 cpm"],
  ["Lys 16 Ala: Aβ16-30 peptide with lysine-16 substituted by alanine (ALVFFAEDVGSNKGA; Amyloid-beta protein 42; UniProt P05067 687-701, looked up, variant K16A)", "5357 cpm"],
  ["Ala 21 Gly: Aβ16-30 peptide with alanine 21 changed to glycine (KLVFFGEDVGSNKGA; Amyloid-beta protein 42; UniProt P05067 687-701, looked up, variant A21G)", "12901 cpm"]
]}

Turning to the following substance.
I'd like to know its T-cell proliferation, average cpm. The substance in question is Gly 25 Ala: Aβ16-30 peptide with Gly 25 substituted by alanine (KLVFFAEDVASNKGA; Amyloid-beta protein 42; UniProt P05067 687-701, looked up, variant G25A)
2426 cpm
